A collection of molecules and their measured pIC50
- SYSTEM_UNDER_TEST: PARP1 (Homo sapiens)
- Sequence (P09874 whole entry): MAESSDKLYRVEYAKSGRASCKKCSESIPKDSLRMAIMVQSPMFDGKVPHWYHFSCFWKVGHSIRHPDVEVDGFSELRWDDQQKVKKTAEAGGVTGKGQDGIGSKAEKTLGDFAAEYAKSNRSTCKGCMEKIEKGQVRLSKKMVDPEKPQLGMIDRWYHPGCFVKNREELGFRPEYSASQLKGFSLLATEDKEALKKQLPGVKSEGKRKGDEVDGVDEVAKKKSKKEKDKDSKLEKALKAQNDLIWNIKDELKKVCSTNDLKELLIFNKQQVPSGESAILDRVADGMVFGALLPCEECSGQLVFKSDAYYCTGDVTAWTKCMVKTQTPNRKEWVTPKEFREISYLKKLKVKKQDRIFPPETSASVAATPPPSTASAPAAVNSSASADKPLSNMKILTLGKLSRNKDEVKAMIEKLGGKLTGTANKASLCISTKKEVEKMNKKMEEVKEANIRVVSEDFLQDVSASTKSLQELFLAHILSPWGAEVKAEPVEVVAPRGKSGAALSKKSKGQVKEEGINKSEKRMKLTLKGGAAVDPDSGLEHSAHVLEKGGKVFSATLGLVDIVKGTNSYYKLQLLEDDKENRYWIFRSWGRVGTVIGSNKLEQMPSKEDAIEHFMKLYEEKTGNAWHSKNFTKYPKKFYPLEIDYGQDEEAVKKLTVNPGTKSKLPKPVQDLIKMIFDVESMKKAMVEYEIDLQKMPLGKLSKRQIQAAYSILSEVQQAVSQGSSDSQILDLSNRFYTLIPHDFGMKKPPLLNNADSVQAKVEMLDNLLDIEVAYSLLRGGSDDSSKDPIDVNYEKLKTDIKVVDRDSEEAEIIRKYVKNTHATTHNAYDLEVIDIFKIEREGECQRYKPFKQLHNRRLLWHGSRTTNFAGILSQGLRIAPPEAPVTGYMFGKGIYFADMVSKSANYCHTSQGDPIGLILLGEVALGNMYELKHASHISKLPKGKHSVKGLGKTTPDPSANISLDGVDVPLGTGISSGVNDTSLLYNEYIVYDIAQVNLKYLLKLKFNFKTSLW
- TEST_PROTOCOL: PARP1 biochemical DELFIA assay (auto-PARylation)
- EXPERIMENTAL_CONTEXT: Table 1A
pIC50: −log10 of the molar value.
EXPERIMENTAL_ENDPOINT: pIC50

{"MOLECULE": "O=C(CN1CCCC1c1cc(C(F)(F)F)c(=O)[nH]n1)N1CCN(c2nc3ccc(F)cc3o2)CC1 (single isomer, unassigned) [Compound 95b]", "RESULT": "5.00 to 6.00"}
{"MOLECULE": "O=C(CN1CCCC1c1cc(C(F)(F)F)c(=O)[nH]n1)N1CCN(c2ncc(F)cc2F)CC1 (single isomer, unassigned) [Compound 83b]", "RESULT": "< 5.00"}
{"MOLECULE": "O=C(CN1CCCC1c1cc(C(F)(F)F)c(=O)[nH]n1)C1CCN(c2ncc(C(F)(F)F)cn2)CC1 (single isomer, unassigned) [Compound 75a]", "RESULT": "7.00 to 8.00"}
{"MOLECULE": "O=C(CN1CCCC1c1cc(C(F)(F)F)c(=O)[nH]n1)N1CCN(c2ncc(OC(F)(F)F)cn2)CC1 (single isomer, unassigned) [Compound 72b]", "RESULT": "≥ 8.00"}
{"MOLECULE": "O=C(CN1CCCC1c1c[nH]c(=O)c(Cl)c1)N1CCN(c2ncc(C(F)(F)F)cn2)CC1 (single isomer, unassigned) [Compound 78b]", "RESULT": "< 5.00"}
{"MOLECULE": "N#Cc1cnc(N2CCN(C(=O)CN3CCCC3c3cc(C(F)(F)F)c(=O)[nH]n3)CC2)c(C(F)(F)F)c1 (single isomer, unassigned) [Compound 124b]", "RESULT": "5.00 to 6.00"}
{"MOLECULE": "CCc1cc(C2CCCN2CC(=O)N2CCN(c3ncc(C(F)(F)F)cn3)CC2)c[nH]c1=O (single isomer, unassigned) [Compound 57b]", "RESULT": "5.00 to 6.00"}
{"MOLECULE": "N#Cc1ccc2nc(N3CCN(C(=O)CN4CCCC4c4cc(C#N)c(=O)[nH]n4)CC3)oc2c1 (single isomer, unassigned) [Compound 145b]", "RESULT": "< 5.00"}
{"MOLECULE": "O=C(CN1CCCC1c1cc(C(F)(F)F)c(=O)[nH]n1)N1CCN(c2nc3ccc(Cl)cc3o2)CC1 (single isomer, unassigned) [Compound 85a]", "RESULT": "≥ 8.00"}
{"MOLECULE": "O=C(CN1Cc2ccccc2C1c1cc(C(F)(F)F)c(=O)[nH]n1)N1CCN(c2ncc(C(F)(F)F)cn2)CC1 (single isomer, unassigned) [Compound 104b]", "RESULT": "5.00 to 6.00"}
{"MOLECULE": "CNC(=O)c1ccc(N2CCN(C(=O)CCN3CCCC3c3c[nH]c(=O)c(C(F)(F)F)c3)CC2)cn1 (single isomer, unassigned) [Compound 73b]", "RESULT": "5.00 to 6.00"}
{"MOLECULE": "O=C(CN1CCCC1c1cc(C(F)(F)F)c(=O)[nH]n1)N1CCN(c2ncc(OC(F)F)cn2)CC1 (single isomer, unassigned) [Compound 118a]", "RESULT": "≥ 8.00"}
